Hello, the source for this data is the supplement of paper PMC9170038, in case you need it.

- Tested on: K4 kissing-loop RNA reporter;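 also: bound reporter read as fluorescence of individual clusters on recovered sequencing chips by microscopy, with normalized cluster intensities fitted with a binding model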
- experiment: apparent KD of K4 kissing-loop reporter; higher = weaker reporter binding
- appliedConditions: Eterna round: R107; input ligand: tryptophan 2.4 mM
measuredEndpoint: apparent KD of K4 kissing-loop reporter (µM)
# output: bare number, implied unit µM

Answered cases to consult:
GGAUCGCAUGGCGAAAAGCCAUGCGAUCCACGAGGACCGGUACGGCCGCCACUCGCCGGAGUGAUGUUCCGCUACAGAUCUUAAA
0.301
GUCAGACCGGGACUCCAGUGAUGUUGGAGGCAGGAUAUCCAGUCGAGGAGAAGGGCCAGGGAUAUCGAGCUGCUCGGUUUGUAGU [Xexezaes]
0.0674
CUUCGAUUAACAGAUACCAGUCACUUUGGAGCCACACACAAGUGAGUGAUGUUCACUUGUGACCCUUGGCAGCUGUUAGUCGAAG [Theo B Ex t1]
0.0881
GGUUCCUCAGUGAUGUUGAGGUGACCUCGGCAGGAUAUAGGCAUUACUAGAAGGGCCAAAAGAACCCUGUCCAGCGACACAGGGA [Zalatiat]
0.232
CGUACGGUUUCUUUCUUUCCGUACGAGUGCCGAGGACCGGUACGGCCGCCACUCGCUACAGCCUAGUGAUGUUAGGCAUUUCUUU
0.0941

// switching to the query sequence
Query string: What is its apparent KD of K4 kissing-loop reporter for K4 kissing-loop RNA reporter? Entry: GUAGGAUGAGGAGGAGGAAGAAAUACUGAAGGAGCGCAAAGAAAUGCAGGUAGGUCGCGGUAAAGAAGUAUAGUGAUGUUAUAUA [SSArgA.C]
Result string: 0.373

* * *

- Test system: MS2 coat protein
- experiment: apparent KD of MS2 coat protein; designed switch direction (-1 OFF switch, 1 ON switch): -1; higher = weaker reporter binding
- appliedConditions: Eterna round: R98; input ligand: none
Property: apparent KD of MS2 coat protein; scope: individual sequences
# output: bare number, implied unit nM

Answered cases to consult:
AGCUGUGGCCGAGGAUAUCUAUCUUCAAUAACCGAAAUAUAAUCGGACAUGAGGAUCACCCAUGUAGAGAAGGCGGUCUCAGCA [Eli xng2 2.033]
37.7
UCAUACAUGAGGAUCUCCCAUGACAUGAGGAUCACCCAUGUGCAGGAUAUACGUGAUAUAAUAUAGUAGAAGGGCAGACUAUAU [LRO008_Exclusion NG 3]
157
UCACAGUGUCGUUAUCCGUAGCGAACAUGAGGAUCACCCAUGUAGGAUAUGUUAUUAAACUAAUAACAGAAGGACGUUAGUCGG [Ex NG3 #21]
36
UUCUGUGCCCAAAGUUUAAGCACAUGAGGAUCACCCAUGUGAAAGGAUAUGUGGCGUGUAACGUUAUAGAAGGUUCACAAUAAA [Edorcetila]
33.1
AACAGCGUAGAUAAUAAUGAUUACAUGAGGAUCACCCAUGUAUAGGAUAUGCAGUGGAAUACACUGCAGAAGGAUACAUCGCUG [Exclusion NG 3/18-B1]
17.5

// switching to the query sequence
Query string: I have this sequence here, AUGCUUCACACAGGAUAUACAUGAGGAUCACCCAUGUGUGGGCGGUAGCUGACACGAGCUACCGGGUAGAAGGGUGUGAAGCAU [xclu_NG2_cac21] , and I need its recorded apparent KD of MS2 coat protein.
Result string: 32.6

* * *

- System: MS2 coat protein
- experiment: apparent KD of MS2 coat protein; designed switch direction (-1 OFF switch, 1 ON switch): 1; higher = weaker reporter binding
- appliedConditions: Eterna round: R95; input ligand: microRNA oligo, concentration not stated
measuredEndpoint: apparent KD of MS2 coat protein (nM)
# output: bare number, implied unit nM

Answered cases to consult:
AGAAAGAAACAUGAGGAUCACCCAUGUACAAGCUUUUUGCUCGUCUUAUUACAUGGGUUCAUGGGUGAUCGGGAUGU [Tim MacKenzie] (puzzle: Sensor for hsa-mir-208a version 2)
13.1
GAGAGAGGAAGCGAGGAUAUCGUGUUGAGUACAUGAGGAUCACCCAUGUUGUAGGUAGAGGUAGGCGAGAAGGCGCAGGAGAAGA [JR_SS2_Sub0100] (puzzle: Same State 2)
39.3
AACAAUCUUUCUGAGGAUAUCAUGAAAUAAACAUGAGGAUCACCCAUGUGCAGGAAAACUGCAUAUGAGAAGGCAGAUAGAUUGA [salish99_ss2_r3_024] (puzzle: Same State 2)
414
GGAGAGAGAGCACAGGAUAUGAGAGGAGAGACAUGAGGAUCACCCAUGUAAGAGAGAGAGGAGAGUUAGAAGGGUGAGAGAGAGG [Altered State 2-20 - Jieux - Same State 2] (puzzle: Same State 2)
43
AUCCUACAUGAGGAUCACCCAUGUGAGGCCUCAAUAGGAUAUGCGUGUGCCUUGGCGCAUGCAGAAGGAUUGAAGC [JL Aveso mod 2] (puzzle: Same State 1)
159

// switching to the query sequence
Query string: What is its apparent KD of MS2 coat protein for MS2 coat protein? Entry: AGCUAUCGAAAACGAUAGCAAAAGCAUGUACAUGAGGAUCACCCAUGUCAUGUACAAGCUUUUUGCUCGUUUUAAAA [Zipper 23 - 15] (puzzle: Sensor for hsa-mir-208a)
Result string: 37.8

* * *

Property: apparent KD of MS2 coat protein; scope: individual sequences
- System: MS2 coat protein
- experiment: apparent KD of MS2 coat protein; designed switch direction (-1 OFF switch, 1 ON switch): -1; higher = weaker reporter binding
- appliedConditions: Eterna round: R95; input ligand: microRNA oligo, concentration not stated
# output: bare number, implied unit nM

UAGAUGGGAGGAUAUGCAUAGAUACAGAUUCGUGUAGUGCUACAUGAGGAUCACCCAUGUAGAAGGCCCGUCUU [JL-ex2-2.22 Mayanne mod] (puzzle: Exclusion 2)
14.2
AGUAACAGAGGAUAUACUAUUUUAUGUGUUUGUUAUUUUAAACAUGAGGAUCACCCAUGUAGAAGGCUGAAUAA [JMF 84] (puzzle: Exclusion 2)
21
ACUAGCUUUUUGCAUAUUAGGUUUGUUGCUUCGUAUGUAACAUGAGGAUCACCCAUGUAUUACUGAUGUCGUCGUUU [JR_SV3TOV2_Sub091] (puzzle: Sensor v3, turn-off variant 2)
17.3
AAGAAACAUGAGGAUCACCCAUGUGAGGAUAUGACAAAGAAAAGAAAAGAAAGAAGACUCAGAAGGCACAAAGG [salish99-ex1_r3_039] (puzzle: Exclusion 1)
40.6

Query string: I have this sequence here, AUACCACGAGGAUAUCGUCUAUUUUACAUGAGGAUCACCCAUGUUAUCUUUGUAAUGUUUCGAGAAGGCGUGUUUU [JR_E5_Sub080] (puzzle: Exclusion 5) , and I need its recorded apparent KD of MS2 coat protein.
Result string: 31.7

Query string: I have this sequence here, GAUUAUGCGAGCUUUAGGGACAUGAGGAUCACCCAUGUUCGUCUUAUUGAUCUAGAUGCACUAACAUACCUAAAUCU [JMF 25] (puzzle: Sensor v3, turn-off variant 1) , and I need its recorded apparent KD of MS2 coat protein.
Result string: 25.1

* * *

- System: MS2 coat protein
- experiment: apparent KD of MS2 coat protein, switch ON state; designed switch direction (-1 OFF switch, 1 ON switch): -1; higher = weaker reporter binding
- appliedConditions: FMN input: 0 or 200 uM; Eterna round: R93 (includes R88 designs)
measuredEndpoint: apparent KD of MS2 coat protein
Note to self: number, then unit, no commentary.

Answered cases to consult:
AGUAGAUCAGGAUAUACAUAAAUGAUAAUUAUGUAACUUUUACAUGAGGAUCACCCAUGUAGAAGGGAUCUACA [Ex2 Design 130: Not so Super Stable 18]
14.8 nM
CAGUACUGAGGAUAUACAUGAGGAUCACCCAUGUGUUCCAGCUAGGAAACUAGCAAAAGUAGAAGGCAGUACUG [Ex3: 828]
24.6 nM

Query string: I have this sequence here, AGAAUACAUGAGGAUCACCCAUGUGAGGAUAUGUAGAUAAAAAUAAAAUAAAAUAAAUACAGAAGGCACAAAAG [EX 1 May 19] , and I need its recorded apparent KD of MS2 coat protein.
Result string: 61.3 nM

Query string: I have this sequence here, AAGAACACAGGAUAUACAUGAGGAUCACCCAUGUAAAAGAAAGAAAAGGGAAAGAAAAGUAGAAGGGUGAAGAA [Nebkheperure Tutankhaten] , and I need its recorded apparent KD of MS2 coat protein.
Result string: 44.7 nM

* * *

- Test system: MS2 coat protein
- experiment: apparent KD of MS2 coat protein; designed switch direction (-1 OFF switch, 1 ON switch): -1; higher = weaker reporter binding
- appliedConditions: input ligand: none
Use 80 nM as the dividing line for apparent KD of MS2 coat protein, with the line itself on the condition met side and lower values as condition not met.

Known results for sequences:
GCAGCUAACACAGAUAUGUGCACAUGAGGAUCACCCAUGUCACAGGAUAUGGACUGGAUUACAGUCCAGAAGGGUGAAUGCUGC [Zipper Style 6] (Eterna round: R96, puzzle: Exclusion NG 3)
condition not met
CCGGUUGGCGCAGGAUAUACAUGAGGAUCACCCAUGUUCAUGAGGAUCAUCCAUGAGUUUUUGUUGUAGAAGGGUGGCCCGGCC (Eterna round: R96, puzzle: Exclusion NG 2)
condition met
UACAUGAGGAUCACCCAUGUUUUGUCGUGUAUGGUAUUUAUCUAGGAUAUCAAUUUAGUUAGUUAUGAGAAGGAGAAUAUUAAU [JMF's solution 76] (Eterna round: R96, puzzle: Exclusion NG 3)
condition not met

Below: the item to evaluate.
Query string: Does apparent KD of MS2 coat protein meet or surpass 80 nM for AGCUGUGGCCGAGGAUAUCUCAUAGUCCCAACCGAAAUAUAAUCGGACAUGAGGAUCACCCAUGUAGAGAAGGCGGUCUCAGCA [Eli eng2 - 071] (Eterna round: R96, puzzle: Exclusion NG 2) ?
Result string: condition met
